Tested on: Staphylococcus haemolyticus
measurement_protocol: Antibacterial activity against Staphylococcus haemolyticus isolated from patient with diabetic foot infection after 18 to 24 hrs by broth microdilution method
Type: functional
value_type: MIC50 (µg/mL)

molecule | value_type | recorded_measurement
C[C@@H](O)[C@H]1C(=O)N2C(C(=O)O)=C(S[C@@H]3CN[C@H](CNS(N)(=O)=O)C3)[C@H](C)[C@H]12 [DORIPENEM] | MIC50 | 0.5
CCC[C@@H]1C[C@@H](C(=O)N[C@@H]([C@H]2O[C@H](SC)[C@H](O)[C@@H](O)[C@H]2O)[C@H](C)Cl)N(C)C1 [CLINDAMYCIN] | MIC50 | 0.125
C[C@@H](O)[C@H]1C(=O)N2C(C(=O)O)=C(SCCNC=N)C[C@H]12 [IMIPENEM ANHYDROUS] | MIC50 | 0.06
C[C@@H](O)[C@H]1C(=O)N2C(C(=O)O)=C(S[C@@H]3CN[C@H](C(=O)Nc4cccc(C(=O)O)c4)C3)[C@H](C)[C@H]12 [ERTAPENEM] | MIC50 | 4
C[C@@H](O)[C@H]1C(=O)N2C(C(=O)O)=C(S[C@@H]3CN[C@H](C(=O)N(C)C)C3)[C@H](C)[C@H]12 [MEROPENEM] | MIC50 | 1
